Recorded measurements of melting point, one per entry
Structures can show the parent of a compound that is named as a salt.

CCn1cnc2c(Nc3cccc(Cl)c3)nc(NCCCOC)nc21 [Example 12]: 93 to 94 °C
CCn1cnc2c(Nc3cccc(Cl)c3)nc(N3CCC(CCN)CC3)nc21 [Example 18]: 182 to 184 °C
CCn1cnc2c(Nc3cccc(Cl)c3)nc(N(C)C(N)=O)nc21 [Example 53]: > 220 °C
CCn1cnc2c(Nc3cccc(Cl)c3)nc(NCc3ccccc3)nc21 [Example 10]: 88 to 90 °C
CCn1cnc2c(Nc3cccc(Cl)c3)nc(NCCc3ccccc3)nc21 [Example 11]: 151 to 152 °C

Kindly consider the entry below.
Asked: For the compound CC(C)n1cnc2c(Nc3cccc(Cl)c3)nc(NCCN)nc21 (as salt: ammonium) [Example 4] , report melting point.
Given back: 55 to 56 °C

====

measured.parameter: melting point

Asked: For the molecule CC(C)n1cnc2c(Nc3cccc(F)c3)nc(NCCN)nc21 , report melting point.
Given back: > 250 °C

Asked: For the molecule CCn1cnc2c(Nc3cccc(Cl)c3)nc(N(CCO)CCO)nc21 , report melting point.
Given back: 148 to 149 °C

Asked: For the molecule CCn1cnc2c(Nc3cccc(Cl)c3)nc(NCC(C)N)nc21 (stereo not drawn) , report melting point.
Given back: 119 to 120 °C
